Readings of switch fluorescence ratio for the listed sequences
System: ATP;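 further: ATP exposure 15 min at 22 °C before imaging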
Test: switch fluorescence ratio, 500 uM ATP over buffer (Cy3 cluster intensity, sum of 5 cycles each) (fold (ratio)); higher = stronger signal-on switching upon ATP binding; sequences stand for … in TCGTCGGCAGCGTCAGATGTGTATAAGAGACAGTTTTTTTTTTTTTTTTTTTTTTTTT…TC
Settings: aptamer strand: ATP DNA aptamer (quencher-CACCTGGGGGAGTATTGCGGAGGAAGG + anchor), 100 nM annealed; ATP concentration: 500 uM
measured-quantity: switch fluorescence ratio

>>> df
    biopolymer_sequence  test_result
 0           CGGGTAGTAC         1.19
 1           AGAGGGAGGA         1.02
 2           TTGAACTGTG         1.02
 3           TCGGCTTCCT         1.27
 4           TTAGTTGGCA        0.981
 5           TTACATTTTT         1.05
 6           GTGGGGGGTT        0.993
 7           GGTTTAAGTT         0.99
 8           TGTGAGGTGT         1.02
 9           CGTTGATGCT         1.01
10           AGGGACTTTA         1.03
11           TCGTTTCGGG        0.985
12           GATAATTTTG        0.989
13           TTTTCGGAGT         1.01
14           ATTGATGTCC        0.976
15           TCAAAGGTAC         1.04
16           TATCGTCTAC         1.01
17           ACCGTTTTTA         1.08
18           CGTGTGATGC         1.05
19           TTTGAGGAGC         1.03
20           AGGTAAGGCT        0.976
21           TTGGAATCGA         1.06
22           AGGGGTATTC         1.01
23           TGGGTAGTTT            1
24           CAGAGTAACA        0.973
25           ATTTGTCCGT         1.03
26           AAAGGGGAAC         1.03
27           CCATTCTAGA         1.01
28           GGGGAAGGTT        0.991
29           GGGGGCGATT        0.987

----------
Readings of switch fluorescence ratio for the listed sequences
Tested on: ATP;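 further: ATP exposure 15 min at 22 °C before imaging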
Assay: switch fluorescence ratio, 500 uM ATP over buffer (Cy3 cluster intensity, sum of 5 cycles each) (fold (ratio)); higher = stronger signal-on switching upon ATP binding; sequences stand for … in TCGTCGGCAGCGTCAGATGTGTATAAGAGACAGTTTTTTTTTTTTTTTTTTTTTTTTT…TC
Conditions: aptamer strand: ATP DNA aptamer (quencher-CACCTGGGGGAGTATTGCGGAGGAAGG + anchor), 100 nM annealed; ATP concentration: 500 uM
measured-quantity: switch fluorescence ratio

In [3]: df
Out[3]:
    biopolymer_sequence          measured_quantity  test_result
 0           CGGAATGTTT  switch fluorescence ratio         1.05
 1           TTGCTTCAGC  switch fluorescence ratio        0.994
 2           ATACACGTTA  switch fluorescence ratio         1.23
 3            AGGCCTGGG  switch fluorescence ratio            1
 4           TCAGCCGGGA  switch fluorescence ratio         1.08
 5           GATATGCTGG  switch fluorescence ratio        0.987
 6           CAACGGGGGT  switch fluorescence ratio         1.03
 7           GGGGGAGTAG  switch fluorescence ratio        0.983
 8           TAGTTGGGCT  switch fluorescence ratio        0.961
 9           AAAATGGGTA  switch fluorescence ratio        0.986
10           GATGGTTTTT  switch fluorescence ratio            1
11           CAGGTGACGC  switch fluorescence ratio         1.07

----------
Test system: ATP;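 further: ATP exposure 15 min at 22 °C before imaging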
Experiment: switch fluorescence ratio, 500 uM ATP over buffer (Cy3 cluster intensity, sum of 5 cycles each) (fold (ratio)); higher = stronger signal-on switching upon ATP binding; sequences stand for … in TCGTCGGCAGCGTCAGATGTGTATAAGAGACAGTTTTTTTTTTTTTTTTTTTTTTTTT…TC
Settings: aptamer strand: ATP DNA aptamer (quencher-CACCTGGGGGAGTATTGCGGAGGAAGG + anchor), 100 nM annealed; ATP concentration: 500 uM
measured-quantity: switch fluorescence ratio

    biopolymer_sequence  test_result
 0           TTTTGAGGCA         1.02
 1           CATAATGGTC        0.986
 2           TCATATTAAG        0.991
 3           GGGGCTGGGG         1.01
 4           TGGCCGGGCG         1.01
 5           GAAGGATTGT         1.02
 6           GTTTTATGGA        0.983
 7           CTATTCCACC         1.02
 8           GCGAGATGAT        0.977
 9           GATTCATGTT        0.998
10           TATTTGTCGG         1.02
11           GTTTAATGGG        0.999
12           GTGTCGTTTG            1
13           CGACTCGACG         1.01
14           TATGATCACG        0.995

----------
System: ATP;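 further: ATP exposure 15 min at 22 °C before imaging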
Test: switch fluorescence ratio, 500 uM ATP over buffer (Cy3 cluster intensity, sum of 5 cycles each) (fold (ratio)); higher = stronger signal-on switching upon ATP binding; sequences stand for … in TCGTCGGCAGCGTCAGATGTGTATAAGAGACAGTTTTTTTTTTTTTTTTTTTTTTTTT…TC
Settings: aptamer strand: ATP DNA aptamer (quencher-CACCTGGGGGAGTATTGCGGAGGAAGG + anchor), 100 nM annealed; ATP concentration: 500 uM
measured-quantity: switch fluorescence ratio

In [3]: df
Out[3]:
    biopolymer_sequence  test_result
 0           AGGACTGGGG         1.01
 1           TCATGGGGCT         1.02
 2           TGTGAGTAGG         1.02
 3           ATTAGAGGGG        0.986
 4           TACTTTCTGC         1.02
 5           TACCAACATC         1.09
 6           GTATTTTTAG        0.993
 7           ACCTGGCAAA         1.09
 8           TACGGGGACG         1.02
 9           GGTGAAAAAG         1.01
10           GCCAATGGGG        0.989
11           TTAATGGTTG        0.975
12           AGTCTGCCGG         1.01
13           CCCTTTTGGG        0.997
14           AATTTTATCT         0.99
15           AGATATTACG         1.03
16           AAATCGGTGG         1.01
17           ACGCGTCAGC         1.01
18           CGATTCTGAG            1
19           GGGGAGCAGC         1.11
20           TGGGGGAACG        0.984
21           ACGGTTTAAT         1.04
22            ATAATGGTC            1
23           TTCGGTTTGC         1.02
24           TGGGCGGGGT         1.02
25           TTCTTTTTGG         0.97
26           CCTCGATGTA         1.08
27           TGTGTTTATA         1.01
28           TGCAAAGATT         0.99
29           AAAACCGCGA         1.59
30           GGCTATCGGG         1.02
